ASSAY_TARGET: T1, HAb18G/CD147 on HHCC hepatocellular carcinoma cells (human, UniProt P35613 140-385, glycosylated (mode not specified))
T1 sequence: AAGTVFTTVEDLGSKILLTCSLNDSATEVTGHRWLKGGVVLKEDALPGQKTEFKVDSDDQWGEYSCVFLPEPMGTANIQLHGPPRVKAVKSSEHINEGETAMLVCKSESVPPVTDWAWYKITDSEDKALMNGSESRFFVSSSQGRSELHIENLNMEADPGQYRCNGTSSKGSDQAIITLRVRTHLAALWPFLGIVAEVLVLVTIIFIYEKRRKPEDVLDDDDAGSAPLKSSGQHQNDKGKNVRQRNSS
EXPERIMENT_SUMMARY: cell-based or functional assay
PROPERTY_LABEL: inhibitory rate (%)

>>> value_reported("LHRHSHGHSYKS [HAb18G/CD147 binding/antagonistic peptide (2)]")
-38.6
>>> value_reported("ANIVPIHANHFQ [HAb18G/CD147 binding/antagonistic peptide (7)]")
56.4
>>> value_reported("KYPHQHLHMHDS [HAb18G/CD147 binding/antagonistic peptide (4)]")
39.6
>>> value_reported("GHWHNHRHQAPL [HAb18G/CD147 binding/antagonistic peptide (3)]")
90.1
